Field: Plant response rating, Galium. Provide a value for each of the molecules that follow.
# Test system: galium (catchweed bedstraw, Galium aparine)
# METHOD SUMMARY: Test A greenhouse herbicide test, postemergence
# Assay type: in vivo
# SETUP CONDITIONS: 500 g ai/ha, visual rating after approx. 10 d, 0 to 100 scale (0 no effect, 100 complete control)
// print number alone

Recorded result, CCc1nn(C)c(=O)c(-c2c(C)oc3ccc(C)cc23)c1O [Compound 118] , Plant response rating, Galium: 0

Quick note, Plant response rating, Galium for Cc1nn(C)c(=O)c(-c2c([N+](=O)[O-])ccc3ccccc23)c1OC(=O)C1CC1 [Compound 167] landed at 90

Looking up Cc1ccc2ccccc2c1-c1c(OC(=O)C(C)(C)C)c(C#N)nn(C)c1=O [Compound 128] , I see its Plant response rating, Galium listed as 70

Plant response rating, Galium reported for this molecule COC(=O)Oc1cnn(C)c(=O)c1-c1c(C)sc2ccccc12 [Compound 97] : 100

So for COC(=O)Oc1c(C)nn(C)c(=O)c1-c1c(C(F)(F)F)ccc2ccccc12 [Compound 149] , the logged Plant response rating, Galium turned out to be 100

The molecule identified as Cc1nn(C)c(=O)c(-c2c([N+](=O)[O-])ccc3ccccc23)c1O [Compound 165] registered its Plant response rating, Galium at 100

// Plant response rating, Galium value for CC(=O)Oc1c(C)nn(C)c(=O)c1-c1c(C)cc(C)c2ccccc12 [Compound 99] : 100

In plain terms, Cc1ccc2c(-c3c(O)c(C)nn(C)c3=O)c(C)ccc2c1 [Compound 110] has a documented Plant response rating, Galium of 90

The molecule identified as Cc1nn(C)c(=O)c(-c2c(C)sc3ccc(C(F)(F)F)cc23)c1O [Compound 121] registered its Plant response rating, Galium at 90

---

# Test system: blackgrass (Alopecurus myosuroides)
# METHOD SUMMARY: Test A greenhouse herbicide test, postemergence
# Format: in vivo
# SETUP CONDITIONS: 125 g ai/ha, 0 to 100 scale where 0 is no effect and 100 is complete control
RECORDED ENDPOINT: Plant response rating, Blackgrass
Output: the number by itself.

For the compound Cc1nn(C)c(=O)c(-c2cccc3ccc(OC(F)F)cc23)c1O [Compound 93] , the measured Plant response rating, Blackgrass on blackgrass (Alopecurus myosuroides) was 0

Record CCOc1ccc2oc(CC)c(-c3c(O)c(C)nn(C)c3=O)c2c1 [Compound 68] has blackgrass (Alopecurus myosuroides) Plant response rating, Blackgrass equal to 0

Value sought: Plant response rating, Blackgrass, system blackgrass (Alopecurus myosuroides), item COC(=O)Oc1c(OC)nn(C)c(=O)c1-c1c(C)ccc2ccccc12 [Compound 136] . Result: 60

Kindly note: blackgrass (Alopecurus myosuroides), Cc1nn(C)c(=O)c(-c2cccc3ccc(C4CC4)cc23)c1O [Compound 71] , Plant response rating, Blackgrass value reported: 30

---

# System: ryegrass, Italian (Italian ryegrass, Lolium multiflorum)
# METHOD SUMMARY: Test D controlled growth environment herbicide test, pre- and postemergence
# Assay type: in vivo
# SETUP CONDITIONS: postemergence, 62 g ai/ha; scale 0 to 100, 0 no effect, 100 complete control
RECORDED ENDPOINT: Plant response rating, Ryegrass, Italian
When you answer, write just the number.

# Plant response rating, Ryegrass, Italian (compound: Cc1ccc2ccccc2c1-c1c(O)c(Br)nn(C)c1=O [Compound 23] ) is 80

Recorded result, COC(=O)Oc1c(C)nn(C)c(=O)c1-c1c(C)sc2ccc(C)cc12 [Compound 80] , Plant response rating, Ryegrass, Italian: 95

Input Cc1nn(C)c(=O)c(-c2ccc(Br)c3ccccc23)c1O [Compound 75] . Output Plant response rating, Ryegrass, Italian: 95

Reported Plant response rating, Ryegrass, Italian ( Cc1cc2ccccc2c(-c2c(O)c(C)nn(C)c2=O)c1C [Compound 34] ) = 95

Reported Plant response rating, Ryegrass, Italian for Cc1ccc2sc(Br)c(-c3c(O)c(C)nn(C)c3=O)c2c1 [Compound 79] was 75

So for Cc1cc(C)c2sc(C)c(-c3c(O)c(C)nn(C)c3=O)c2c1 [Compound 2] , the logged Plant response rating, Ryegrass, Italian turned out to be 80

// recorded Plant response rating, Ryegrass, Italian for CCc1sc2ccc(C)cc2c1-c1c(O)c(C)nn(C)c1=O [Compound 47] : 10
